Reference source for all entries: paper PMC9814929

Listing: XRD cross-β reflection of selected compounds
Peptide text beside a SMILES is read from it.

| compound | XRD cross-β reflection, Å |
| --- | --- |
| CC[C@H](C)[C@H](NC(=O)[C@@H](NC(=O)[C@@H](NC(=O)[C@@H](NC(=O)[C@@H](NC(C)=O)C(C)C)C(C)C)C(C)C)[C@@H](C)O)C(=O)N[C@@H](CC(C)C)C(=O)N[C@@H](CC(C)C)C(=O)N[C@@H](CCC(=O)O)C(=O)N[C@@H](CCC(=O)O)C(=O)O [SLP1] (Ac-VVVTILLEE-OH) | 4.7 |
| CC[C@H](C)[C@H](NC(=O)[C@@H](NC(=O)[C@@H](NC(=O)[C@@H](NC(=O)[C@@H](NC(C)=O)C(C)C)C(C)C)C(C)C)[C@@H](C)O)C(=O)N[C@@H](CC(C)C)C(=O)N[C@@H](CC(C)C)C(=O)N[C@@H](CCC(=O)O)C(=O)N[C@@H](CCC(=O)O)C(=O)N[C@@H](CCC(=O)O)C(=O)O [SLP3] (Ac-VVVTILLEEE-OH) | 4.7 |
| CC(=O)N[C@H](C(=O)N[C@H](C(=O)N[C@H](C(=O)N[C@H](C(=O)N[C@@H](CC(C)C)C(=O)N[C@@H](CC(C)C)C(=O)N[C@@H](CC(C)C)C(=O)N[C@@H](CCC(=O)O)C(=O)N[C@@H](CCC(=O)O)C(=O)O)[C@@H](C)O)C(C)C)C(C)C)C(C)C [SLP2] (Ac-VVVTLLLEE-OH) | 4.7 |
